# Test Method Notes: In vitro enzyme assay to detect hydrolysis of chlorophenol red-beta-D-[…] directly proportional to the number of Toxoplasma stably expressing beta-galactosidase
# Format: functional, organism-based, Toxoplasma gondii
# Design: scale not given: in the data most compounds retested in dose-response had high values
# Condition Info: 50 µM
Screen size: about 85,000 compounds; about 440 (0.52%) showed an effect of 50% or more. This excerpt belongs to a sample that is enriched for strong results.
Result Type: Percent Effect (%)
State just the number; it will be interpreted in %.

Known results for compounds:
1. CCC(C)(CC)NC(=O)Nc1cnn(CCOC)c1 : -4.406
2. O=C(COc1ccc(F)cc1)Nc1ccon1 : -3.156
3. N[C@H]1CC[C@@H](n2cc(Br)cn2)CC1 : 5.491
4. CCc1nnsc1C(=O)N1CCc2sccc2C1 : -20.28

Now, please, on to the next compound.
Data request, read-out Percent Effect, for CC(C(=O)N1CCCC1)N1CCN(c2nc[nH]n2)CC1 (stereo not given)
16.6

All values here come from ChEMBL document CHEMBL3988442.
